- System: human lung cancer strain NCI-H441
- Assay type: cell-based
Where a SMILES comes first, the peptide text is derived from it. Bridges are numbered along the chain shown (N, C = ends). [ ]: non-standard residue; d: D form. The star is where a group is joined. hPhe(3,5-F2-4-CF3) = N[C@@H](CCc1cc(F)c(C(F)(F)F)c(F)c1)C(=O)O; NPrPhe(4-CF3) = CCCN[C@@H](Cc1ccc(C(F)(F)F)cc1)C(=O)O; NMeGly(cPent) = CN[C@H](C(=O)O)C1CCCC1; Nva(3-Et) = CCC(CC)[C@H](N)C(=O)O; NMeD = CN[C@@H](CC(=O)O)C(=O)O; NMeL = CN[C@@H](CC(C)C)C(=O)O; Morpholide = C1CN(*)CCO1; Ac5c = NC1(C(=O)O)CCCC1; Aze = O=C(O)[C@@H]1CCN1; Sar = CNCC(=O)O
Readout Type: IC50 (nM)
The reply should contain only the number, in nM.

# Compound, IC50 (nM)
data = [
    ("CCO[C@@H]1C[C@H]2C(=O)NC3(CC(C)(C)C3)C(=O)N(C)[C@@H](C3CCCCC3)C(=O)N(C)[C@H](C(=O)N(C)C)CC(=O)N(C)[C@@H](CC)C(=O)N[C@@H]([C@@H](C)CC)C(=O)N(C)CC(=O)N(C)[C@H]3C/C=C\\CCN(C3=O)[C@@H](Cc3ccc(C(F)(F)F)cc3)C(=O)N(C)CC(=O)N[C@@H](CCc3cc(F)c(C(F)(F)F)c(F)c3)C(=O)N2C1 [PP1942]", 25.7),
    ("CCO[C@@H]1C[C@H]2C(=O)NC3(CCC3)C(=O)N(C)[C@@H](C3CCCC3)C(=O)N(C)[C@H](C(=O)N(CC)CC)CC(=O)N(C)[C@@H](CC(C)C)C(=O)N[C@@H]([C@@H](C)CC)C(=O)N(C)CC(=O)N(C)[C@H]3C/C=C\\CCN(C3=O)[C@@H](Cc3ccc(C)cc3)C(=O)N(C)CC(=O)N[C@@H](CCc3ccc(C(F)(F)F)c(OC)c3)C(=O)N2C1 [PP1851]", 165),
    ("CCCN1C(=O)CN(C)C(=O)[C@@H]2CCN2C(=O)[C@H](C(CC)CC)NC(=O)[C@H](CC(C)C)N(C)C(=O)C[C@@H](C(=O)N2CCOCC2)N(C)C(=O)[C@H](C2CCCC2)N(C)C(=O)C2(CCCC2)NC(=O)[C@@H]2CCCN2C(=O)[C@H](CCc2cc(F)c(C(F)(F)F)c(F)c2)NC(=O)CN(C)C(=O)[C@@H]1Cc1ccc(C(F)(F)F)cc1 [PP0785] ([NMeL][Nva(3-Et)][Aze][Sar][NPrPhe(4-CF3)][Sar][hPhe(3,5-F2-4-CF3)]P[Ac5c][NMeGly(cPent)][NMeD]-Morpholide; lactam N-11)", 324),
]

Now turn to the next compound.
I looked up CC[C@H](C)[C@@H]1NC(=O)[C@H](CC(C)C)N(C)C(=O)C[C@@H](C(=O)N(C)C)N(C)C(=O)[C@H](C2CCCC2)N(C)C(=O)C2(CCCC2)NC(=O)[C@@H]2CCCN2C(=O)[C@H](CCc2ccc(C(F)(F)F)c(Cl)c2)NC(=O)CN(C)C(=O)[C@H](Cc2ccc(C(F)(F)F)cc2)N2CC=CCOC[C@H](C2=O)N(C)C(=O)CN(C)C1=O [PP0628] and its IC50 for human lung cancer strain NCI-H441 was 46.3

The measurements presented in this section are drawn from patent EP4603105A1.
